TEST_SYSTEM: SIK1 (Homo sapiens, UniProt P57059)
Construct: purchased Carna Biosciences 02-131
Sequence (P57059 whole entry): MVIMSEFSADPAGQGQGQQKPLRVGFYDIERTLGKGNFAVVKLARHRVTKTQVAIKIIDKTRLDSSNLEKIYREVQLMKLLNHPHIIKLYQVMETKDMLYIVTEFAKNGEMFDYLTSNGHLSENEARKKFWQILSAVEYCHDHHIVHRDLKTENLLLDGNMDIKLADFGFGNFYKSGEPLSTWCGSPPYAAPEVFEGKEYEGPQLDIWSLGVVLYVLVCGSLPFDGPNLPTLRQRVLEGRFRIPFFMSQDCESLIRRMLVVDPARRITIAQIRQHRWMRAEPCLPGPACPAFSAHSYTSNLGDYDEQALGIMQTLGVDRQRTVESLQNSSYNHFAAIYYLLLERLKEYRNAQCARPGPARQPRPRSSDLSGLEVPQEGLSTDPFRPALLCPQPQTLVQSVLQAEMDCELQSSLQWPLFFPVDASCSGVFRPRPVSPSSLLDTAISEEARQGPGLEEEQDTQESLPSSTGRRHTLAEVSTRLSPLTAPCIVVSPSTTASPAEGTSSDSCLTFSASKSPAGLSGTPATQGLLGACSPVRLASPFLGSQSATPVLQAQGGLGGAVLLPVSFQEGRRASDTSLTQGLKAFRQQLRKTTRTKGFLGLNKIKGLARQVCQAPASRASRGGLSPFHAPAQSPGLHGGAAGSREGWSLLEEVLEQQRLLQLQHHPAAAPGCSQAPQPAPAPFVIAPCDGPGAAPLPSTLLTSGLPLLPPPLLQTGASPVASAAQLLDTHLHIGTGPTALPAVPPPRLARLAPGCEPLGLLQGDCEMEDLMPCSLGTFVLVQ
ASSAY_EXPLANATION: ADP-Glo kinase assay, SIK1
Type: biochemical
pIC50: −log10 of the molar value.
MEASUREMENT_LABEL: pIC50

1. COc1cc(-c2cnc3cc(C4(C#N)CNC4)ccn23)cc(OC(F)F)c1C(=O)NC1CC1	< 6.30
2. COc1cc(-c2cnc3cc(C4(C#N)CC4)ccn23)cc(OC(F)F)c1C(=O)NC1CC1	6.30 to 7.00
3. COc1cc(-c2cnc3cc(C(C)N4CC(F)(F)C4)ccn23)cc(OC(F)F)c1C(=O)NC1CC1 (centres unmarked)	< 6.30
4. COc1cn2c(-c3cc(OC)c(C(=O)NC4CC4)c(OC(F)F)c3)cnc2cc1C1COC1	6.30 to 7.00
5. COc1cc(-c2cnn3cc(C(C)(C)c4nc(C)no4)ccc23)cc(OC(F)F)c1C(=O)NC1CC1	< 6.30
6. COc1cc(-c2cnc3cc(C4(C#N)CCCC4)ccn23)cc(OC(F)F)c1C(=O)NC1CC1	< 6.30
7. COc1cc(-c2cnc3cc(C4(O)CCC4)ccn23)cc(OC(F)F)c1C(=O)NC1CC1	< 6.30
8. COc1cc(-c2cnc3cc(C4(O)CCOC4)ccn23)cc(OC(F)F)c1C(=O)NC1CC1 (centres unmarked)	< 6.30
